Value source: patent EP0547708A1

Hi there, I'd appreciate the recorded pKi for every entry that follows.
Lab note: report pKi as minus log10 of the concentration in molar units, number only.

Entry CC(C)c1cccc2c1C(=O)N(COc1cc(=O)oc3ccccc13)S2(=O)=O : pKi on human leukocyte elastase (Homo sapiens, UniProt P08246) = 9.66

Entry CC(C)c1cccc2c1C(=O)N(COc1cc(=O)n(C)c3ccccc13)S2(=O)=O : pKi on human leukocyte elastase (Homo sapiens, UniProt P08246) = 9.15

Entry Cc1cc(OCN2C(=O)c3c(C(C)C)cccc3S2(=O)=O)c(C(=O)c2ccccc2)c(=O)o1 : pKi on human leukocyte elastase (Homo sapiens, UniProt P08246) = 10.46

Entry COc1cc(C(C)C)c2c(c1)S(=O)(=O)N(COc1c(C(C)=O)c(=O)n(C)c3ccccc13)C2=O : pKi on human leukocyte elastase (Homo sapiens, UniProt P08246) = 9.57

Entry COc1cc(C(C)C)c2c(c1)S(=O)(=O)N(COC1=C(CN3CCOCC3)C(=O)OC1)C2=O : pKi on human leukocyte elastase (Homo sapiens, UniProt P08246) = 10.39

Entry COc1cc(C(C)C)c2c(c1)S(=O)(=O)N(COC1=CC(=O)OC1(C)C)C2=O : pKi on human leukocyte elastase (Homo sapiens, UniProt P08246) = 10.03

Entry COc1cc(C(C)C)c2c(c1)S(=O)(=O)N(COc1c(C(C)=O)c(=O)n(-c3ccccc3)c3ccccc13)C2=O : pKi on human leukocyte elastase (Homo sapiens, UniProt P08246) = 9.37

Entry COc1cc(C(C)C)c2c(c1)S(=O)(=O)N(COC1=C(C(C)=O)C(=O)c3ccoc3C1=O)C2=O : pKi on human leukocyte elastase (Homo sapiens, UniProt P08246) = 7.77

Entry COc1cc(C(C)C)c2c(c1)S(=O)(=O)N(COC1=C(C)C(=O)C(C)=C(C)C1=O)C2=O : pKi on human leukocyte elastase (Homo sapiens, UniProt P08246) = 9.04

Entry COc1cc(C(C)C)c2c(c1)S(=O)(=O)N(COC1=C(Oc3ccccc3)C(=O)N(c3ccccc3)C1)C2=O : pKi on human leukocyte elastase (Homo sapiens, UniProt P08246) = 10.22

Entry COc1cc(C(C)C)c2c(c1)S(=O)(=O)N(COc1nc3ccccn3c(=O)c1CN1CCOCC1)C2=O : pKi on human leukocyte elastase (Homo sapiens, UniProt P08246) = 9.64
